Test system: Aβ1-42
protocol-description: Aβ1-42 content in conditioned medium of primary cortico-hippocampal neuron cultures from Tg2576 mice (ELISA; primary and secondary dose-response screening)
Assay type: cell-based, mouse
experimental-conditions: Mus musculus, Neuron, 24 h, primary screening, drug 100 μM, Tg2576 neuron cultures; table sorted by Aβ1-42; read-out: Ab1-42 (% of ctl)
Structures can show the parent of a compound that is named as a salt.
measure: activity at 100 µM

Q: Given the compound CCOC(=O)C1=C(COCCN)NC(C)=C(C(=O)OC)C1c1ccccc1Cl (centres unmarked) [Amlodipine Besylate] , write its reported activity at 100 µM.
Result: 10.2%

Q: Tell us which activity at 100 µM value is on record for C=C[C@H]1C[N@@]2CC[C@H]1C[C@@H]2[C@@H](O)c1ccnc2ccc(OC)cc12 [Quinidine Gluconate]
Result: 70%

Q: Write down activity at 100 µM measured for item O=C(O)c1cccnc1 [Niacin]
Result: 95%

Q: Kindly indicate its recorded activity at 100 µM. Item: CC(=O)Nc1nnc(S(N)(=O)=O)s1 [Acetazolamide]
Result: 118%

Q: Provide only the value of recorded activity at 100 µM for CCOC(=O)[C@H](CCc1ccccc1)N[C@@H](C)C(=O)N1CCC[C@H]1C(=O)O [Enalapril Maleate]
Result: 97.6%

Q: Look up activity at 100 µM of C=CCSCC1Nc2cc(Cl)c(S(N)(=O)=O)cc2S(=O)(=O)N1 (centres unmarked) [Althiazide] and report it.
Result: 65.4%

Q: Give the reported activity at 100 µM for this compound. CCCc1nc2c(C)cc(-c3nc4ccccc4n3C)cc2n1Cc1ccc(-c2ccccc2C(=O)O)cc1 [Telmisartan]
Result: 112%

Q: Return activity at 100 µM (reported value) for this compound: CCN(CC)CCNC(=O)c1ccc(N)cc1 [Procainamide Hydrochloride]
Result: 109%

Q: For the compound CCOC(=O)C(C)(C)Oc1ccc(Cl)cc1 [Clofibrate] , give its reported activity at 100 µM.
Result: 92.5%

Q: Give the reported value of activity at 100 µM for this record: OCCN(CCO)c1nc(N2CCCCC2)c2nc(N(CCO)CCO)nc(N3CCCCC3)c2n1 [Dipyridamole]
Result: 62.6%

Q: Tell me activity at 100 µM reported for C[C@H](CS)C(=O)N1CCC[C@H]1C(=O)O [Captopril]
Result: 99.7%

Q: Input CC(=O)Nc1ccc(OCC(O)CNC(C)C)cc1 (centres unmarked) [Practolol] , output reported activity at 100 µM.
Result: 99.9%

Q: Entry Cc1cccc(Nc2ccncc2S(=O)(=O)NC(=O)NC(C)C)c1 [Torsemide] needs its activity at 100 µM filled in; supply it.
Result: 104%

Q: Fill in reported activity at 100 µM for this entry: C#CCN(C)Cc1ccccc1 [Pargyline Hydrochloride]
Result: 106%

Q: Give the measured activity at 100 µM for COC(=O)C1=C(C)NC(C)=C(C(=O)OC)C1c1ccccc1[N+](=O)[O-] [Nifedipine]
Result: 90.6%

Q: Annotate the compound Cc1cc(C(C)(C)C)c(O)c(C)c1CC1=NCCN1 [Oxymetazoline Hydrochloride] with its measured activity at 100 µM.
Result: 44.9%

Q: Given the compound CC1=NS(=O)(=O)c2cc(Cl)ccc2N1 [Diazoxide] , write its reported activity at 100 µM.
Result: 98.9%

Q: Indicate the recorded activity at 100 µM value for this compound: C=C(CC)C(=O)c1ccc(OCC(=O)O)c(Cl)c1Cl [Ethacrynic Acid]
Result: 1.8%

Q: Identify measured activity at 100 µM associated with CCOC(=O)[C@H](CCc1ccccc1)N[C@H]1CCc2ccccc2N(CC(=O)O)C1=O [Benazepril Hydrochloride]
Result: 115%

Q: Respond only with activity at 100 µM recorded for CCOC(=O)[C@H](CCc1ccccc1)N[C@@H](C)C(=O)N1[C@H](C(=O)O)C[C@H]2CCCC[C@@H]21 [Trandolapril]
Result: 111%

Q: Note down activity at 100 µM recorded for Cc1ccccc1N1C(=O)c2cc(S(N)(=O)=O)c(Cl)cc2NC1C (centres unmarked) [Metolazone]
Result: 98%

Q: Please look at this compound and report its activity at 100 µM: COC(=O)[C@H]1[C@H]2C[C@H]3c4[nH]c5ccccc5c4CCN3C[C@H]2CC[C@@H]1O [Rauwolscine Hydrochloride]
Result: 74.3%

Q: Provide activity at 100 µM value for the following compound: COC(=O)[C@@H]1[C@H]2C[C@H]3c4[nH]c5ccccc5c4CCN3C[C@@H]2CC[C@@H]1O [Yohimbine Hydrochloride]
Result: 68.9%

Q: Provide measured activity at 100 µM value, entry: C1CCC(C(CC2CCCCN2)C2CCCCC2)CC1 (centres unmarked) [Perhexiline Maleate]
Result: 26.2%

Q: Tell me its activity at 100 µM given CCN(CC)CCOC(=O)C(Cc1cccc2ccccc12)CC1CCCO1 (centres unmarked) [Nafronyl Oxalate] as the entry.
Result: 145%

Q: Specify measured activity at 100 µM for NS(=O)(=O)c1cc2c(cc1Cl)N=C(CSCc1ccccc1)NS2(=O)=O [Benzthiazide] .
Result: 98.9%

Q: Input CCOC(=O)[C@H](CCc1ccccc1)N[C@@H](C)C(=O)N1[C@H](C(=O)O)C[C@@H]2CCC[C@@H]21 [Ramipril] , output reported activity at 100 µM.
Result: 105%

Q: Answer with the recorded activity at 100 µM of CC[C@]12CCCN3CCc4c(n(c5ccccc45)[C@@](O)(C(=O)OC)C1)[C@@H]32 [Vincamine] only.
Result: 104%

Q: Return the recorded activity at 100 µM value; entry: C[C@@H]1CCC[C@H](C)N1NC(=O)c1ccc(Cl)c(S(N)(=O)=O)c1 [Clopamide]
Result: 98.9%

Q: Look up and report measured activity at 100 µM for this entry: NC[C@H]1CC[C@H](C(=O)O)CC1 [Tranexamic Acid]
Result: 53.9%

Q: Tell me measured activity at 100 µM for CC(CCc1ccccc1)NCC(O)c1ccc(O)c(C(N)=O)c1 (centres unmarked) [Labetalol Hydrochloride] please.
Result: 106%

Q: Output measured activity at 100 µM for this item: CC(C)N(CCC(C(N)=O)(c1ccccc1)c1ccccn1)C(C)C (centres unmarked) [Disopyramide Phosphate]
Result: 66.3%

Q: Check the records and state activity at 100 µM for COc1cc2ccc(=O)oc2cc1O [Scopoletin]
Result: 109%

Q: Dear colleague, please send me the reported activity at 100 µM for CCCCc1oc2ccccc2c1C(=O)c1cc(I)c(OCCN(CC)CC)c(I)c1 [Amiodarone Hydrochloride] when you can.
Result: 23.2%

Q: // Input: CC(COc1ccccc1)NC(C)C(O)c1ccc(O)cc1 (centres unmarked) [Isoxsuprine Hydrochloride] . Output its activity at 100 µM only.
Result: 83.7%

* * *

Tested on: primary cortico-hippocampal neuron cultures
protocol-description: lactate dehydrogenase (LDH) activity assay in parallel neuron cultures
experimental-conditions: Primary Screening; table sorted by Aβ1-40
Counter-ions that a name gives are not always drawn.
measure: LDH (% of ctl)

Q: Provide LDH (% of ctl) value for the following compound: "CCOC(=O)C1=C[C@]2(CC)CCCN3CCc4c(n1c1ccccc41)[C@@H]32"
Result: 111.3 % of ctl

Q: Query LDH (% of ctl) for CCOc1nc2cccc(C(=O)OC(C)OC(=O)OC3CCCCC3)c2n1Cc1ccc(-c2ccccc2-c2nn[nH]n2)cc1 (centres unmarked)
Result: 227.6 % of ctl

Q: Fill in LDH (% of ctl) for record "COc1ccccc1N1CCN(CCCNc2cc(=O)n(C)c(=O)n2C)CC1"
Result: 97.1 % of ctl

Q: Look up and report measured LDH (% of ctl) for this entry: "CCCC(=O)Nc1ncnc2c1ncn2[C@@H]1O[C@@H]2COP(=O)(O)O[C@H]2[C@H]1OC(=O)CCC"
Result: 357.1 % of ctl

Q: State its LDH (% of ctl) for this compound: CCOC(=O)C1=C(C)NC(C)=C(C(=O)OC)C1c1cccc([N+](=O)[O-])c1 (centres unmarked)
Result: 94.3 % of ctl

Q: Complete the entry with LDH (% of ctl) for Cc1cccc(Nc2ccncc2S(=O)(=O)NC(=O)NC(C)C)c1 [Torsemide]
Result: 107.5 % of ctl

Q: State its LDH (% of ctl): "COc1cc2ccc(=O)oc2cc1O"
Result: 106.2 % of ctl

Q: Let me know recorded LDH (% of ctl) for "COc1ccc(C2C(=O)c3ccccc3C2=O)cc1" , thanks.
Result: 148.9 % of ctl

Q: Recall and state the measured LDH (% of ctl) for CCOC(=O)[C@H](CCc1ccccc1)N[C@@H](C)C(=O)N1Cc2ccccc2C[C@H]1C(=O)O [Quinapril Hydrochloride] .
Result: 101.8 % of ctl

Q: Note down LDH (% of ctl) recorded for CCOC(=O)C(C)(C)Oc1ccc(Cl)cc1 [Clofibrate]
Result: 110.5 % of ctl

Q: Supply LDH (% of ctl) value. Item: CNCCc1ccccn1 [Betahistine Hydrochloride]
Result: 107.3 % of ctl

Q: Item CC(C)(C)NCC(O)COc1cccc2[nH]c(=O)[nH]c12 (centres unmarked) : provide LDH (% of ctl)
Result: 109.3 % of ctl

Q: Supply recorded LDH (% of ctl) for COc1cc2nc(N3CCN(C(=O)c4ccco4)CC3)nc(N)c2cc1OC [Prazosin Hydrochloride] here.
Result: 260.2 % of ctl

Q: Specify reported LDH (% of ctl) for the compound shown: "CC(=O)S[C@@H]1CC2=CC(=O)CC[C@]2(C)[C@H]2CC[C@@]3(C)[C@@H](CC[C@@]34CCC(=O)O4)[C@H]12"
Result: 100.6 % of ctl

Q: Fill in LDH (% of ctl) for record Cc1ccccc1N1C(=O)c2cc(S(N)(=O)=O)c(Cl)cc2NC1C (centres unmarked)
Result: 103.7 % of ctl

Q: Consider the compound "CCC(C)(C)C(=O)O[C@H]1C[C@@H](C)C=C2C=C[C@H](C)[C@H](CC[C@@H]3C[C@@H](O)CC(=O)O3)[C@H]21" and give its recorded LDH (% of ctl).
Result: 129.9 % of ctl

Q: State, in one line, measured LDH (% of ctl) of O=[N+]([O-])O[C@H]1CO[C@H]2[C@@H]1OC[C@H]2O[N+](=O)[O-] [Isosorbide Dinitrate]
Result: 124.6 % of ctl

Hello, the source for this data is patent US20100029654A1, in case you need it.
